Origin of values: patent US7687456B2

Test system: proteasome CT-L activity
ASSAY_PROCEDURE: Proteasome CT-L inhibition in blood of mice one hour after oral dosing
Assay type: in vivo
CONDITION_DETAILS: 40 mg/kg PO, one hour post-dosing, blood lysate, substrate LLVY-AMC, relative to vehicle-dosed cohort
# maps each entry to its proteasome CT-L inhibition
READOUT_LABEL: proteasome CT-L inhibition

* CC(C)C[C@H](NC(=O)c1cc(CN2CCOCC2)on1)C(=O)N[C@@H](Cc1ccccc1)C(=O)N[C@@H](CC(C)C)C(=O)[C@@]1(C)CO1 | > 80%
* COC[C@H](NC(=O)c1cc(C)on1)C(=O)N[C@@H](Cc1ccccc1)C(=O)N[C@@H](CC(C)C)C(=O)[C@@]1(C)CO1 | > 90%
* CC(C)C[C@H](NC(=O)[C@H](Cc1ccccc1)NC(=O)[C@@H](NC(=O)c1cc(CN2CCOCC2)on1)C(C)C)C(=O)[C@@]1(C)CO1 | > 80%
* CC(C)C[C@H](NC(=O)c1cc(CN2CCOCC2)on1)C(=O)N[C@@H](Cc1cscn1)C(=O)N[C@@H](CC(C)C)C(=O)[C@@]1(C)CO1 | > 90%
* COCC[C@H](NC(=O)c1cc(C(C)C)on1)C(=O)N[C@@H](Cc1ccccc1)C(=O)N[C@@H](CC(C)C)C(=O)[C@@]1(C)CO1 | > 70%
